Test system: MS2 coat protein
Assay: apparent KD of MS2 coat protein; higher = weaker reporter binding
Conditions: Eterna round: R107; input ligand: theophylline 20 uM
Parameter threshold = 100 nM. Response is true when apparent KD of MS2 coat protein meets or exceeds it, else false.

SEQUENCE_TEXT: CAUACUUUAGUAUGACGUGUGGGCAGUGAUACCAGAUACGAAAGUAUCCCUUGGCAGCACAACAUGAGGAUCACCCAUGUAAUUA [Theophylline A 1]
LABEL_CLASS: false

SEQUENCE_TEXT: GCCUAGCAGCGAAGGAGCGAGGUAACUUAAUAAAUAAAUACAAGAGGAUCACCCUUGUUUCCUCAGGUAGGUCGCGCUGCUAGGC [SSAB Alternative Aptamer #2 NP+V+V2]
LABEL_CLASS: false

SEQUENCE_TEXT: AGCCAUGGAAACAUGGCGGCGGCUUGAGCGCGAGGACCGGUACGGCCGCCACUCGGGCAACAUGAGGAUCACCCAUGUUCCUCAU [ETA NP+V+V2 #19]
LABEL_CLASS: true

SEQUENCE_TEXT: AAAUAAAUCACAUGAGGAUCACCCAUGGAUACCAGGCCUGGAAACAGCCCUUGGCAGCCACAUGAGGAUCACCCAUGUGCUAAAU [MAT - Exclusion Theophlline A - Mod of Eli - D2]
LABEL_CLASS: true

SEQUENCE_TEXT: ACAUGAGGAUCACCCAUGUAGUGGCACGAUACCAGCUGAUCCCGUGGCCCUUGGCAGCGUCCGGUGUGGUCUGCCGGGAUGGAGC [WBWMULLIN]
LABEL_CLASS: false

SEQUENCE_TEXT: AGACAUGAGGAUCACCCAUGUAGUAUGGAUACCAGAUCCAGAUUUAUCCCUUGGCAGCUGUGGUACAGCGUUGCAACGCUCCUAG [Exclusion - Theophylline A (Freestyle 14)]
LABEL_CLASS: false

SEQUENCE_TEXT: UGGCGAGAAGGAAGGAGCGUCAGCUGAGUCACAUGAGGAUCACCCAUGUCGCACAUAGUGUGACAGGUAGGUCGCCUUCUGCCCU [Beinmain]
LABEL_CLASS: true

SEQUENCE_TEXT: UUCUUUGACGAUCUGGGUUUACCAGAUCGACGAGGACCGGUACGGCCGCCACUCGUGUUUUCUUUACAUGAGGAUCACCCAUGUU [#16Tryptophan A Same State]
LABEL_CLASS: false

SEQUENCE_TEXT: UGUCGUAGACAUGAGGAUCACCCAUGUCCACGAGGACCGGUACGGCCGCCACUCGGGAUAUAAACCGUUACGGGUGGGUGGUGUU [Maarlainin]
LABEL_CLASS: false

* * *

Test system: K4 kissing-loop RNA reporter;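 also: bound reporter read as fluorescence of individual clusters on recovered sequencing chips by microscopy, with normalized cluster intensities fitted with a binding model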
Test: apparent KD of K4 kissing-loop reporter; higher = weaker reporter binding
Details: Eterna round: R107; input ligand: tryptophan 2.4 mM
Overview of reported apparent KD of K4 kissing-loop reporter across a group of sequences:

SEQUENCE_TEXT: UGAUACCAGACUGAUACCAGCUAGUGAUGUUAGCUGAAACAGGAACAGGCAAAGCCUGCUAGCCCUUGGCAGCAGUCUGGUAUCU [TheoBX 11 #SwitchBubble #StaticStem]
apparent KD of K4 kissing-loop reporter: 85.3 nM
//
SEQUENCE_TEXT: GGUAGCGCCAGAGAUACCAGUCAUAUCGCUCUGGAGUGAUGUUCCGGAACGUGCGGAGAAGACCCUUGGCAGCUCAUGACGGUAU [Exclusion Theophylline B GF 3]
apparent KD of K4 kissing-loop reporter: 171 nM
//
SEQUENCE_TEXT: CAUGGAGUGAUGCUCCAUGGUCGGGCUUGGCAGGAUAUGGGAUCUUCCAGAAGGGCCGAUCCCGGCGAGUGAUGUUCGCUGGUCU [Exclusion FMN A GF 28]
apparent KD of K4 kissing-loop reporter: 271 nM
//
SEQUENCE_TEXT: CCGCUGUACUGCAAUAAGUGAUGUUUAUUGCAGGAUAUCUGGAAACAGAGAAGGGCAUGUACUCGACUUAGCCACUACAGCGGUU
apparent KD of K4 kissing-loop reporter: 65.2 nM
//
SEQUENCE_TEXT: AACGCUCAAUAGAGAGUGAUGUUCUCUAUACGAGGACCGGUACGGCCGCCACUCGAAUGUAUAGCGAAACGCUAUACACAGUGGU [Tryp A SS t2]
apparent KD of K4 kissing-loop reporter: 150 nM
//
SEQUENCE_TEXT: UUGUUUGGUUGAGAGGUUGGGCGAGAUGAUACCAGUAGAGAAGAGUACCCUUGGCAGCAUAGGAGAGAUAUAGUGAUGUUGUAUG [SSTheophA.S]
apparent KD of K4 kissing-loop reporter: 299 nM
//
SEQUENCE_TEXT: UUAGGAGUGGGAGGAUAUCCUAAUGUGGGUGAUGUUAGCGAUGUUGAAAGUGUAGUGAUGUUGUGCGGAGAAGGUCCAGUGUUGA [BDazzled - #12 - Exc. FMN B]
apparent KD of K4 kissing-loop reporter: 168 nM
//
SEQUENCE_TEXT: ACCCGGGCCCGAAAGGGCCCGGGAAGAGAUACCAGCAGCGAAAGCUGCCCUUGGCAGCUCACUUAGUGAUGUUGAGUAUAGGGUA [#22 K4 Theophylline A Same State]
apparent KD of K4 kissing-loop reporter: 361 nM

Origin of measurements: the supplement of paper PMC9170038
